Tested on: B6C3F1 mice, B16 melanoma ip, median survival T/C
Experiment: NCI In Vivo Anticancer Drug Screen. Data for tumor model B16 Melanoma (intraperitoneal) in B6C3F1 mice
Conditions: endpoint: median survival time; dose: 25.0 mg/kg/injection; schedule: Q01DX009 (ip); vehicle: other; higher = longer survival
Experimental: The antitumor activity of compounds was measured in mice bearing transplantable tumors. Survival or tumor size were measured and the results are expressed as the measurement made in the treated group (T) divided by the measurement made in the vehicle treated control group (C). The tumor model used in this assay is B16 Melanoma (intraperitoneal) in B6C3F1 mice
Toxic doses and inconclusive results are not listed.
Listed here: items and their measured T/C.

# example entries with known answers
{"molecule": "Cc1ccc(N=NN(C)C)c2cccnc12", "T/C": "114 % of control"}
{"molecule": "C[C@@](O)(/C=C/[C@H]1CC=CC(=O)O1)[C@@H](C[C@@H](O)\\C=C/C=C\\C=C\\CO)OP(=O)(O)O", "T/C": "99 % of control"}
{"molecule": "ClC1=C(Cl)C2(Cl)C3C(Cl)C(Cl)CC3C1(Cl)C2(Cl)Cl (stereo unspecified)", "T/C": "95 % of control"}
{"molecule": "CN(C)N=Nc1ccc2c(c1)N(C)c1ccc(F)cc1S2", "T/C": "115 % of control"}
{"molecule": "CN(C)N=Nc1ccc(Cl)c2ncccc12", "T/C": "117 % of control"}

Proceeding to the next molecule to report its T/C.
// T/C lookup, key: "CN(C)N=Nc1ccnc2ccc(Br)cc12" 114 % of control

###

tested on: B6C3F1 mice, B16 melanoma ip, median survival T/C; assay: NCI In Vivo Anticancer Drug Screen. Data for tumor model B16 Melanoma (intraperitoneal) in B6C3F1 mice; details: endpoint: median survival time; dose: 6.25 mg/kg/injection; schedule: Q01DX009 (ip); vehicle: Klucel (hydroxypropylcellulose) (HPC)
Toxic doses and inconclusive results are not listed. How the source made its calls: active means survival T/C of 150% or more; inactive means T/C below 125% in these data.
Thanks in advance; please answer with one of these: 1 (yes) = active, 0 (no) = inactive

Some solved cases for reference:
{"compound": "O=C(O)C1CSCN1 (stereo not drawn)", "group": "0 (no)"}
{"compound": "CNC(=O)OCc1c(COC(=O)NC)c(-c2ccc(F)cc2)n2c1CCC2", "group": "0 (no)"}
{"compound": "Nc1ccc(S(=O)(=O)c2ccc(N)cc2)cc1", "group": "0 (no)"}
{"compound": "Cc1nn(CCO)c(C)c1N=[N+]([O-])c1c(C)nn(CCO)c1C", "group": "0 (no)"}
{"compound": "C[As](C)SCCC(N)C(=O)NC(CCS[As](C)C)C(=O)O (stereo not drawn)", "group": "0 (no)"}

Test call for this compound, please: "O=NN(CCCl)C(=O)Oc1cc(Cl)c(Cl)cc1Cl" 0 (no)

Also "CC1(C)CC(=O)C(CSC(=O)c2ccccc2)C(=O)C1" , if possible. 0 (no)

And then "Cn1c2ccccc2c2ccc3c(c21)C(=O)C=CC3=O" , what is it? 0 (no)

And "Cc1cc(N/N=C/c2ccccn2)nc2ccccc12" ? 0 (no)

Quick one: "O=C1C(=O)c2cccnc2-c2ncccc21" 0 (no)

###

tested on: B6C3F1 mice, B16 melanoma ip, median survival T/C; test: NCI In Vivo Anticancer Drug Screen. Data for tumor model B16 Melanoma (intraperitoneal) in B6C3F1 mice; details: endpoint: median survival time; dose: 100.0 mg/kg/injection; schedule: Q01DX009 (ip); vehicle: saline with Tween-80; higher = longer survival
Inconclusive results and toxic doses are left out.
observation type: T/C

Worked set:
{"compound": "CCCC(C(CC)CNC(=O)Nc1cccc2ccccc12)N(C)C(=O)Nc1cccc2ccccc12 (configuration not stated)", "system under test": "B6C3F1 mice, B16 melanoma ip, median survival T/C", "T/C": "95 % of control"}
{"compound": "O=C(O)CNC(=O)C(CSCc1ccccc1)NC(=O)OCc1ccccc1 (configuration not stated)", "system under test": "B6C3F1 mice, B16 melanoma ip, median survival T/C", "T/C": "88 % of control"}
{"compound": "O=C1OCC2C(=O)OCC12 (configuration not stated)", "system under test": "B6C3F1 mice, B16 melanoma ip, median survival T/C", "T/C": "101 % of control"}
{"compound": "Cn1cnc([N+](=O)[O-])c1SCC(=O)O", "system under test": "B6C3F1 mice, B16 melanoma ip, median survival T/C", "T/C": "98 % of control"}
{"compound": "O=C(NC(CSSCC(NC(=O)c1ccccc1)C(=O)O)C(=O)O)c1ccccc1 (configuration not stated)", "system under test": "B6C3F1 mice, B16 melanoma ip, median survival T/C", "T/C": "108 % of control"}
{"compound": "Nc1nc2c(ncn2C2OC(CO)C(O)C2N)c(=O)[nH]1 (configuration not stated)", "system under test": "B6C3F1 mice, B16 melanoma ip, median survival T/C", "T/C": "107 % of control"}
{"compound": "N#CC(=C1C=CC(=NO)C=C1)c1ccc(Cl)cc1", "system under test": "B6C3F1 mice, B16 melanoma ip, median survival T/C", "T/C": "98 % of control"}
{"compound": "Cc1ccc2c(c1)N=C(Nc1ccccc1)N=S2(C)=O (configuration not stated)", "system under test": "B6C3F1 mice, B16 melanoma ip, median survival T/C", "T/C": "87 % of control"}
{"compound": "CC(C)n1cc2c(N)ncnc2n1", "system under test": "B6C3F1 mice, B16 melanoma ip, median survival T/C", "T/C": "86 % of control"}
{"compound": "Cn1c2c(c3ccccc3c1=O)C(=O)c1ccccc1-2", "system under test": "B6C3F1 mice, B16 melanoma ip, median survival T/C", "T/C": "102 % of control"}

Recorded T/C for O=C1NCC(Br)C(=O)N1 (configuration not stated) , please? 116 % of control

Please answer likewise for "CO[C@@H]1[C@H](O)CC[C@]2(CO2)[C@H]1[C@@]1(C)O[C@@H]1CC=C(C)C" 104 % of control

And what about the compound "CCc1cccc(CC)c1-n1c(C)ccc1-c1ccccc1" ? 107 % of control

Item: "O=S(=O)(c1ccccc1)N1CN2CCN(C2)C1" 112 % of control

Then what about the compound "CCCCCCCCCCCCO[P+](=O)OCCCCCCCCCCCC" ? 96 % of control

And for O=C(CCl)NC(Cc1ccccc1)C(=O)O (configuration not stated) ? 90 % of control

Now consider "Cn1ccc(=Nc2ccc(NC(=O)c3ccc(N=c4ccn(C)c5ccc([N+](=O)[O-])cc45)cc3[N+](=O)[O-])cc2)cc1" . 94 % of control
